All values here come from patent US9745295B2.

- studySystem: recombinant human GST-SYK (Homo sapiens, UniProt P43405)
- procedureText: Homogeneous Time-Resolved Fluorescence (HTRF) assay for the recombinant human Syk enzyme
- conditions: recombinant human GST-SYK 5 pM, ATP 25 μM, read-out: rhSYK IC50
pIC50: −log10 of the molar value.
Lab note: compare pIC50 against 9. Equal or greater, write TRUE. Smaller, write FALSE.

Please review the entries below; each comes with its answer.
- molecule: "CCOc1cc(Nc2nccc(C(F)(F)F)n2)cc(-c2cnc(C3(O)CCC3)s2)n1"
  studySystem: "recombinant human GST-SYK (Homo sapiens, UniProt P43405)"
  group: "FALSE"
- molecule: "Cc1cc(Nc2cc(C(F)(F)F)ncn2)nc(-c2cnc(C3(O)CCC(C(=O)O)C(C)(C)C3)s2)c1 (single isomer, unassigned) [Example 1.6]"
  studySystem: "recombinant human GST-SYK (Homo sapiens, UniProt P43405)"
  group: "TRUE"

Query: API: above_or_equal(metric=pIC50, cutoff=9) for item CCc1cc(Nc2cc(C)cc(-c3cnc(C4(O)CCCc5cc(C(=O)O)ccc54)s3)n2)ncn1 (single isomer, unassigned)
Result: TRUE

* * *

In this section we review reported IC50 values for a set of molecules.
- studySystem: recombinant human GST-SYK (Homo sapiens, UniProt P43405)
- procedureText: Homogeneous Time-Resolved Fluorescence (HTRF) assay for the recombinant human Syk enzyme
- conditions: recombinant human GST-SYK 5 pM, ATP 25 μM, read-out: rhSYK IC50

Would you please look over these solved cases?
- molecule: "Cc1cc(Nc2nccnn2)cc(-c2cnc(C3(O)CCC3)s2)c1 [Example 3.2]"
  IC50: "1010 nM"
- molecule: "CC(O)(c1ncc(-c2cc(Nc3nccc(C(F)(F)F)n3)cc(Cl)n2)s1)[C@H]1CC[C@H](C(=O)O)CC1 (single isomer, unassigned) [Example 4.23]"
  IC50: "5.2 nM"
- molecule: "COc1cc(Nc2cc(C)cc(-c3cnc([C@@]4(O)CC[C@H](C(N)=O)C(C)(C)C4)s3)n2)ncn1 (single isomer, unassigned) [Example 3.1]"
  IC50: "2.5 nM"
- molecule: "Cc1cc(Nc2cc(C(F)(F)F)ncn2)nc(-c2cnc([C@@]3(O)CC[C@H](C(=O)O)[C@H](C)C3)s2)c1 (single isomer, unassigned) [Example 1.3]"
  IC50: "0.938 nM"

Please find the next molecule below.
Query: Quick one: IC50 for CC1(C)CC(O)(c2ncc(-c3nccc(Nc4cc(C(F)(F)F)ccn4)n3)s2)CCC1C(=O)O (single isomer, unassigned) [Example 1.14] ?
Result: 12.1 nM

* * *

- studySystem: recombinant human GST-SYK (Homo sapiens, UniProt P43405)
- procedureText: Homogeneous Time-Resolved Fluorescence (HTRF) assay for the recombinant human Syk enzyme
- conditions: recombinant human GST-SYK 5 pM, ATP 25 μM, read-out: rhSYK IC50
- Description: Homogeneous Time-Resolved Fluorescence (HTRF) Assay for the Recombinant Human Syk Enzyme A recombinant GST-hSYK fusion protein was used to measure potency of compounds to inhibit human Syk activity. […] The resulting HTRF signal was measured after 30 minutes on an EnVision (Perkin-Elmer) reader using a time-resolved fluorescence protocol. […]
experimentalEndpoint: IC50 (nM)
Write the value in nM as a bare number.

Answered cases to consult:
- compound: "Cc1cc(Nc2cc(C(F)(F)F)ncn2)nc(-c2cnc(C3(O)CCC(C(N)=O)C(C)C3)s2)c1 (single isomer, unassigned) [Example 1.17]"
  studySystem: "recombinant human GST-SYK (Homo sapiens, UniProt P43405)"
  readoutUnit: "nM"
  IC50: 1.25
- compound: "Cc1cc(Nc2cnccn2)nc(-c2cnc([C@@]3(O)CC[C@H](C(=O)O)C(C)(C)C3)s2)c1 (single isomer, unassigned)"
  studySystem: "recombinant human GST-SYK (Homo sapiens, UniProt P43405)"
  readoutUnit: "nM"
  IC50: 0.608

Next compound, please.
Query: Endpoint output: IC50 of Cc1cc(Nc2cc(C(F)(F)F)ncn2)nc(-c2cnc(C3(O)CCC(C(N)=O)C(C)C3)s2)c1 (single isomer, unassigned) [Example 1.18] . Value?
Result: 1.52
